Consider the following compounds and their measured TGI readings.
Test system: OVCAR-8 ovarian
Assay: NCI tumour cell line growth inhibition, 48 h

Some compounds with recorded TGI:
Which TGI is listed for CN1CSC(=S)N(c2c3ccccc3nc3ccc(Br)cc23)C1 ?
> 51.2 µM

Which TGI is listed for COc1cccc2c1OC1(C=C2)Oc2ccccc2C(=O)N1C (stereo not drawn) ?
54.4 µM

Which TGI is listed for COc1c(Cl)c(=O)oc2ccc(Cl)cc12 ?
> 100 µM

New cases:
Which TGI is listed for CC(C)OP(=O)(OC(C)C)C(=NCCN=C(NNc1ccc([N+](=O)[O-])cc1)P(=O)(OC(C)C)OC(C)C)NNc1ccc([N+](=O)[O-])cc1 ?
> 100 µM

Which TGI is listed for CC1OC(OC2C(OC(=O)[C@]34CCC(C)(C)C[C@H]3C3=CC[C@@H]5[C@@]6(C)CC[C@H](OC7OC(C(=O)O)C(O)C(O)C7O)C(C)(C)[C@@H]6CC[C@@]5(C)[C@]3(C)C[C@H]4O)OCC(O)C2O)C(O)C(OC2OCC(O)(CO)C2O)C1OC1OCC(O)C(O)C1O (stereo partly drawn) ?
33.4 µM

Which TGI is listed for OC(c1cc(-c2ccc(C(F)(F)F)cc2)nc(-c2ccc(C(F)(F)F)cc2)c1)C1CCCCN1 (stereo not drawn) ?
3.1 µM

====

Test system: UO-31 renal
Assay: NCI tumour cell line growth inhibition, 48 h
Observable: TGI (µM)
Write the number in µM without appending the unit.

Which TGI is listed for N=Nc1c(OC(=O)Nc2cccc(Cl)c2)[nH]c2ccccc12 ?
13.1

Which TGI is listed for OC(c1cc(-c2ccc(C(F)(F)F)cc2)nc(-c2ccc(C(F)(F)F)cc2)c1)C1CCCCN1 (stereo unspecified) ?
3.3

Note: attention shifts to another entry.
Which TGI is listed for CC1=NN(c2cccc(Cl)c2)C2(SCC(=O)N2c2nc3ccccc3s2)/C1=C\c1ccccc1O (stereo unspecified) ?
38.5

====

Consider the following molecules and their measured TGI readings.
Tested on: DU-145 prostate
Assay: NCI tumour cell line growth inhibition, 48 h
Write the number in µM without appending the unit.

Which TGI is listed for Cc1cccc(NC(=O)Cn2cnc3sc(C(=O)OC(C)C)c(C)c3c2=O)c1 ?
36.6

Which TGI is listed for CO[C@H]1/C=C(/C)CCC[C@H](C)[C@H](O)[C@@H](C)C(=O)C(C)(C)[C@@H](O)CC(=O)O[C@@H]1/C(C)=C/c1csc(C)n1 ?
0.0817

Which TGI is listed for Cc1cc2c(cc1Cl)SC(N(N(C)C)S(=O)(=O)c1ccc(Cl)cc1)=NS2(=O)=O ?
99.4

Which TGI is listed for Cc1cccc2c1CC1(C2)Cc2c(C)cccc2C1=O (centres undefined) ?
77.3

Which TGI is listed for O=C(/C=C/c1ccncc1)c1cc(Cl)ccc1O ?
31.5

Note: attention shifts to another entry.
Which TGI is listed for CN1CSC(=S)N(c2c3ccccc3nc3ccc(Br)cc23)C1 ?
22

====

Test system: NCI/ADR-RES ovarian
Assay: NCI tumour cell line growth inhibition, 48 h
Consider the following molecules and their measured TGI readings.

Which TGI is listed for CC1CCC(C(=O)O)(C(Br)C(=O)O)CC1 (centres undefined) ?
> 100 µM

New cases:
Which TGI is listed for Cc1ccccc1S(=O)(=O)OC1NS(=O)(=O)c2ccccc21 (centres undefined) ?
> 100 µM

Which TGI is listed for COC(=O)C1=C(C)NC(C)=C(C(=O)OCCCN2CCC(c3ccccc3)(c3ccccc3)CC2)C1c1cccc([N+](=O)[O-])c1 (centres undefined) ?
3.42 µM

Which TGI is listed for CCC1(CC)C(=O)NN(C(=O)c2ccccc2)C1=O ?
> 100 µM

Which TGI is listed for COP(=O)(/C=C/c1cc(C(=O)OCc2ccccc2)n(S(=O)(=O)c2ccccc2)c1)OC ?
> 100 µM

Which TGI is listed for c1c[nH]c(-c2ccc(-c3ccc[nH]3)c3nsnc23)c1 ?
> 93.2 µM

Which TGI is listed for CC[C@H](Nc1ncnc2nc[nH]c12)c1oc2ccccc2c(=O)c1-c1cccc(F)c1 ?
> 100 µM

Which TGI is listed for O=C(O)c1ccccc1CC1Cc2ccccc2C1=O (centres undefined) ?
> 100 µM

Which TGI is listed for CCN(CC)c1ccc(-c2cc(-c3cc(OC)c(OC)c(OC)c3)nc(N3CCOCC3)c2C#N)cc1 ?
27.8 µM
